assay: Biodistribution of DHA after periorbital skin administration (Example 4); type: in vivo, cynomolgus monkeys; conditions: cynomolgus monkey, left cornea, topical, 6746.51 μg/left eye, 24 h; 6746.51 μg/left eye periorbital skin; read-out: Drug Concentration in Tissue, Left cornea
ENDPOINT LABEL: concentration at 24 h
I'd appreciate it if you included the unit after the number.

Problem: I'd like to know its concentration at 24 h. The compound in question is CC/C=C\C/C=C\C/C=C\C/C=C\C/C=C\C/C=C\CCC(=O)O
Result: 25900 ng/g

====

assay: Biodistribution of DHA after periorbital skin administration (Example 4); type: in vivo, cynomolgus monkeys; settings: cynomolgus monkey, left upper eyelid, topical, 6746.51 μg/left eye, 24 h; 6746.51 μg/left eye periorbital skin; read-out: Drug Concentration in Tissue, Left upper eyelid
ENDPOINT LABEL: concentration at 24 h (ng/g)
Hi! Could you send only the number? It should be in ng/g, unit omitted.

Problem: I'd like to know its concentration at 24 h. The compound in question is CC/C=C\C/C=C\C/C=C\C/C=C\C/C=C\C/C=C\CCC(=O)O [DHA, docosahexaenoic acid]
Result: 16200
